// provenance: PubChem BioAssay (NCI)

- Test system: U251 CNS
- protocolDetails: NCI tumour cell line growth inhibition, 48 h
Form field: TGI (one value per entry).

Example cases with answers are listed next.
molecule: CSc1nc(NC2OCC(OC(C)=O)C(OC(C)=O)C2OC(C)=O)c(N=CC=Nc2c(NC3OCC(OC(C)=O)C(OC(C)=O)C3OC(C)=O)nc(SC)[nH]c2=O)c(=O)[nH]1 (centres undefined)
TGI: > 100 µM
//
molecule: COc1cc2c(c(OC)c1OC)-c1ccc(OC)c(=O)cc1C(NC(=O)c1ccc(N=[N+]=[N-])cc1)CC2 (centres undefined)
TGI: 4 µM
//
molecule: C=C1NC(=O)C(C(C)CC)NC(=O)C2CSCC(NC(=O)CCC(=O)O)C(=O)NC(Cc3ccccc3)C(=O)NC(C)C(=O)NC(CC(C)CC)C(=O)NC(C(=O)NC(Cc3ccccc3)C(=O)N3CCCC3C(=O)N2)C(C)OC(=O)C(CO)NC(=O)C(C(O)COC)N(C)C(=O)C(C(C)C)NC(=O)C(CC(C)CC)NC1=O (centres undefined)
TGI: > 6 µM
//
molecule: O=C(/C=C/c1ccncc1)c1cc(Cl)ccc1O
TGI: 26.2 µM

Query string: TGI for `CCOC(=O)c1c(C)nc2c3ccccc3c(C#N)c(C)n12` ?
Result string: > 100 µM

Query string: May I ask what TGI has been recorded for `CO[C@H]1/C=C(/C)CCC[C@H](C)[C@H](O)[C@@H](C)C(=O)C(C)(C)[C@@H](O)CC(=O)O[C@@H]1/C(C)=C/c1csc(C)n1` ?
Result string: > 100 µM

Query string: Given CCN1c2ccccc2C(C(SC)S(=O)(=O)c2ccc(C)cc2)c2c1[nH]c(=O)n(C)c2=O (centres undefined) , state its recorded TGI.
Result string: > 100 µM

Query string: What value of measured TGI is listed for `N#Cc1c(-c2ccccc2)/c(=C\Nc2ccc(F)cc2)c(=O)n2c1nc1ccccc12` ?
Result string: > 100 µM

Query string: # TGI lookup, item CC1=NN(c2cccc(Cl)c2)C2(C1=C/C=C/c1ccccc1)C(Cl)C(=O)N2c1nc2ccccc2s1 (centres undefined)
Result string: 37.2 µM

Query string: What does the data say about its TGI? Entry: `CC1(C)C2CCC1(C)[C@H](n1c(=O)n([C@@H]3CC4CCC3(C)C4(C)C)c(=O)n([C@@H]3CC4CCC3(C)C4(C)C)c1=O)C2`
Result string: > 100 µM

Query string: GET /values?readout=TGI&item= `CCOC(=O)Cn1c(=O)c2nc(SC)sc2n(-c2ccccc2)c1=O`
Result string: > 100 µM

Query string: What value of TGI has been recorded for this entry: `O=C1NCC2(CCN(CCCC3(c4ccc(F)cc4)OCCO3)CC2)N1c1ccccc1`
Result string: > 100 µM

====

- Tested on: HOP-92 NSCLC
- protocolDetails: NCI tumour cell line growth inhibition, 48 h; in the data active = GI50 below about 0.43 µM; inactive = the rest
// classify into True (active), False (inactive)

Worked examples, 2 molecules total:
molecule: Cc1c2c(nn1-c1ccc(S(=O)(=O)/N=C3\SCCC(=O)N3c3ccccc3)cc1)-c1ccccc1CC2
category: False
--
molecule: Cc1cc(/C=C/c2ccc3cc(N(C)C)ccc3[n+]2C)c(C)n1-c1ccccc1
category: True

Query string: Look up the recorded call for `COc1ccc(-c2nnc(COc3ccc(C(=O)/C=C/c4ccco4)cc3)o2)cc1` in this test.
Result string: False

Query string: # outcome recorded in this test, key = `Cc1cc(I)cc(CN(C)CCCN2CCCCC2)c1O`
Result string: False

====

- System: HCT-116 colon
- protocolDetails: NCI tumour cell line growth inhibition, 48 h
measuredAttribute: GI50

molecule: CCN(CC)c1ccc(-c2cc(-c3cc(OC)c(OC)c(OC)c3)nc(N3CCOCC3)c2C#N)cc1
reading: 0.457 µM
//
molecule: COc1ccc(/C=C(/C#N)n2nnc3cccc(F)c32)cc1
reading: 0.533 µM

We now examine a further compound.
Query string: Consider the compound `COc1ccc(-c2nnc(COc3ccc(C(=O)/C=C/c4ccco4)cc3)o2)cc1` and give its measured GI50.
Result string: 1.82 µM

====

- System: A498 renal
- protocolDetails: NCI tumour cell line growth inhibition, 48 h
# reported TGI; entries follow
Numbers only here, please. The scale is µM.

Please review the following examples before continuing.
molecule: c1ccc(COc2cccc3ccc[n+](Cc4ccccc4)c23)cc1
tgt: A498 renal
TGI [µM]: 97.8
//
molecule: CCN(CC)c1ccc(-c2cc(-c3cc(OC)c(OC)c(OC)c3)nc(N3CCOCC3)c2C#N)cc1
tgt: A498 renal
TGI [µM]: 39.5
//
molecule: Cc1cc(I)cc(CN(C)CCCN2CCCCC2)c1O
tgt: A498 renal
TGI [µM]: 38.3
//
molecule: C=C1NC(=O)C(C(C)CC)NC(=O)C2CSCC(NC(=O)CCC(=O)O)C(=O)NC(Cc3ccccc3)C(=O)NC(C)C(=O)NC(CC(C)CC)C(=O)NC(C(=O)NC(Cc3ccccc3)C(=O)N3CCCC3C(=O)N2)C(C)OC(=O)C(CO)NC(=O)C(C(O)COC)N(C)C(=O)C(C(C)C)NC(=O)C(CC(C)CC)NC1=O (centres undefined)
tgt: A498 renal
TGI [µM]: 0.512
//
molecule: CN1CSC(=S)N(c2c3ccccc3nc3ccc(Br)cc23)C1
tgt: A498 renal
TGI [µM]: 27

Consider the record given below.
Query string: What measured TGI goes with `NS(=O)(=O)c1cc(Cl)c(NC(=S)NC(=O)Nc2ccc(Cl)c(Cl)c2)c(Cl)c1` ?
Result string: 84.4

====

- System: HT29 colon
- protocolDetails: NCI tumour cell line growth inhibition, 48 h
measuredAttribute: TGI

Below, each entry is followed by its recorded TGI result.
compound: CO[C@H]1/C=C(/C)CCC[C@H](C)[C@H](O)[C@@H](C)C(=O)C(C)(C)[C@@H](O)CC(=O)O[C@@H]1/C(C)=C/c1csc(C)n1
TGI: 0.525 µM

compound: COc1cc(/C=C/C(=O)CC(=O)/C=C/c2ccc(OC(=O)CCCCC3CCSS3)c(OC)c2)ccc1OC(=O)CCCCC1CCSS1 (stereo not drawn)
TGI: > 100 µM

compound: O=C1NCC2(CCN(CCCC3(c4ccc(F)cc4)OCCO3)CC2)N1c1ccccc1
TGI: > 100 µM

compound: COc1cc(NS(C)(=O)=O)ccc1Nc1cc(C)[nH]c2ccc3nccc3c12
TGI: > 100 µM

compound: CCCCCCCC(=O)SCC/C=C/[C@@H]1CC(=O)NCc2cc(ccn2)C2=N[C@@](C)(CS2)C(=O)N[C@@H](C(C)C)C(=O)O1
TGI: > 33.3 µM

Query string: Find the recorded TGI belonging to CC1=CC(O)(c2ccc(-c3ccccc3Cl)cc2)OC1=O (stereo not drawn) and report it.
Result string: > 100 µM

Query string: What value of TGI has been recorded for this entry: `OCc1ccc(-c2ccc(-c3ccc(CO)s3)o2)s1`
Result string: > 95 µM

Query string: GET /values?readout=TGI&item= COC(=O)C1=C(C)NC(C)=C(C(=O)OCCCN2CCC(c3ccccc3)(c3ccccc3)CC2)C1c1cccc([N+](=O)[O-])c1 (stereo not drawn)
Result string: 2.71 µM

====

- System: OVCAR-5 ovarian
- protocolDetails: NCI tumour cell line growth inhibition, 48 h; in the data active = GI50 below about 0.43 µM; inactive = the rest
// one of 1.0 (active), 0.0 (inactive), no free text

Solved entries (count: 2):
molecule: Cc1cc(I)cc(CN(C)CCCN2CCCCC2)c1O
category: 0.0
//
molecule: COc1ccc(-c2nnc(COc3ccc(C(=O)/C=C/c4ccco4)cc3)o2)cc1
category: 0.0

Query string: Give the logged outcome of this assay for the following molecule: `CN1CCN(CCCn2c(=O)c3sc4ncccc4c3n3nnc(-c4ccccc4)c23)CC1`
Result string: 0.0

Query string: Could you check what this test reported for `COc1cc2c3c(n(C)c(=O)c2cc1OC)-c1cc2c(cc1/C3=C\CCN)OCO2` ?
Result string: 1.0

Query string: Please share the test call associated with `COc1ccc(-c2nnc(COc3ccc(NC(=O)Nc4cc(C(F)(F)F)cc(C(F)(F)F)c4)cc3F)o2)cc1` .
Result string: 0.0

Query string: Given `O=C(/C=C/c1ccncc1)c1cc(Cl)ccc1O` , state the outcome it received in this test.
Result string: 0.0

Query string: Short answer needed: outcome of this test for `Cc1c2c(nn1-c1ccc(S(=O)(=O)/N=C3\SCCC(=O)N3c3ccccc3)cc1)-c1ccccc1CC2` ?
Result string: 0.0

Query string: Outcome? `Cc1cc(-c2ccc3nc(C4CCOCC4)n(CCOC(F)(F)F)c3c2)cn(C)c1=O`
Result string: 0.0

Query string: Per the assay record, what outcome was assigned to OC(c1cc(-c2ccc(C(F)(F)F)cc2)nc(-c2ccc(C(F)(F)F)cc2)c1)C1CCCCN1 (centres undefined) ?
Result string: 0.0

====

- Test system: OVCAR-8 ovarian
- protocolDetails: NCI tumour cell line growth inhibition, 48 h
measuredAttribute: TGI

compound: O=C(Nc1nccs1)c1c(O)nc2sccn2c1=O
TGI: > 10 µM
--
compound: CC(=N/N=C/c1ccccn1)/C(C)=N/N=C(C)/C(C)=N/N=C(C)/C(C)=N/N=C(C)/C(C)=N\N=C\c1ccccn1
TGI: > 100 µM
--
compound: CCOC(=O)NC(=O)c1cn(CCCO)c(=O)[nH]c1=O
TGI: > 100 µM

Next compound, please.
Query string: What does the data say about its TGI? Entry: `CC1=C[C@@H]2Cc3nc4cc(Cl)ccc4c(N)c3[C@H](C1)C2`
Result string: 38.9 µM
